System: NCI-H1395
Assay: relative viability (nuclei count vs DMSO), 5 days (fraction); higher = more cells survive
Details: first compound 4 µM
MEASURED PROPERTY: relative viability

>>> reported_measurement("COc1cc(N2CCC(C(N)=O)CC2)ccc1Nc1nc(N)c(Cl)c(Nc2ccccc2S(=O)(=O)C(C)C)n1 [HG-5-88-01] + CS(=O)(=O)N1CCN(Cc2cc3nc(-c4cccc5[nH]ncc45)nc(N4CCOCC4)c3s2)CC1 [Pictilisib] (partner 1 µM)")
0.523
>>> reported_measurement("Clc1ccc(Nc2nnc(Cc3ccncc3)c3ccccc23)cc1 [Vatalanib] + Nc1nc2[nH]cc(CCc3ccc(C(=O)N[C@@H](CCC(=O)O)C(=O)O)cc3)c2c(=O)[nH]1 [Pemetrexed] (partner 0.2 µM)")
0.842
>>> reported_measurement("C[C@@H]1CN(CC(=O)Nc2ccc3c(c2)Cc2cccc(-c4cc(=O)cc(N5CCOCC5)o4)c2S3)C[C@H](C)O1 + Cc1nc(Nc2ncc(C(=O)Nc3c(C)cccc3Cl)s2)cc(N2CCN(CCO)CC2)n1 [Dasatinib] (partner 0.075 µM)")
0.368
>>> reported_measurement("Clc1ccc(Nc2nnc(Cc3ccncc3)c3ccccc23)cc1 [Vatalanib] + C[C@]1(O)C[C@@H](c2nc(-c3ccc4ccc(-c5ccccc5)nc4c3)c3c(N)nccn32)C1 [Linsitinib] (partner 1 µM)")
0.86

* * *

System: LXF-289
Experiment: relative viability (nuclei count vs DMSO), 5 days (fraction); higher = more cells survive
Conditions: first compound 0.1265 µM
MEASURED PROPERTY: relative viability

>>> reported_measurement("COc1cc(N2CCC(C(N)=O)CC2)ccc1Nc1nc(N)c(Cl)c(Nc2ccccc2S(=O)(=O)C(C)C)n1 [HG-5-88-01] + Nc1ncn([C@H]2C[C@H](O)[C@@H](CO)O2)c(=O)n1 [Decitabine] (partner 2 µM)")
0.402
>>> reported_measurement("C[C@@H]1CN(CC(=O)Nc2ccc3c(c2)Cc2cccc(-c4cc(=O)cc(N5CCOCC5)o4)c2S3)C[C@H](C)O1 + CC(=O)c1c(C)c2cnc(Nc3ccc(N4CCNCC4)cn3)nc2n(C2CCCC2)c1=O [Palbociclib] (partner 0.5 µM)")
0.617

* * *

Quick reference for relative viability among some molecules
Tested on: NCI-H1975
Assay: relative viability (nuclei count vs DMSO), 5 days (fraction); higher = more cells survive
Settings: first compound 0.3162 µM
MEASURED PROPERTY: relative viability

>>> reported_measurement("CC(C)Oc1cc(Nc2nc(N[C@@H](C)c3ccc(F)cn3)ncc2Cl)n[nH]1 [AZ23] + Nc1nc2[nH]cc(CCc3ccc(C(=O)N[C@@H](CCC(=O)O)C(=O)O)cc3)c2c(=O)[nH]1 [Pemetrexed] (partner 0.2 µM)")
0.312
>>> reported_measurement("CC(C)Oc1cc(Nc2nc(N[C@@H](C)c3ccc(F)cn3)ncc2Cl)n[nH]1 [AZ23] + N=C(N)NC(=N)NCCc1ccccc1 [Phenformin] (partner 250 µM)")
0.397
>>> reported_measurement("CC(C)Oc1cc(Nc2nc(N[C@@H](C)c3ccc(F)cn3)ncc2Cl)n[nH]1 [AZ23] + Nc1ncn([C@H]2C[C@H](O)[C@@H](CO)O2)c(=O)n1 [Decitabine] (partner 2 µM)")
0.414

* * *

Quick reference for relative viability among some compounds
System: CAL-12T
Experiment: relative viability (nuclei count vs DMSO), 5 days (fraction); higher = more cells survive
Details: first compound 0.04 µM
MEASURED PROPERTY: relative viability

>>> reported_measurement("Clc1ccc(Nc2nnc(Cc3ccncc3)c3ccccc23)cc1 [Vatalanib] + COc1cccc2cc(-c3nc([C@H]4CC[C@H](C(=O)O)CC4)n4ncnc(N)c34)[nH]c12 [OSI-027] (partner 0.5 µM)")
0.574
>>> reported_measurement("C[C@@H]1CN(CC(=O)Nc2ccc3c(c2)Cc2cccc(-c4cc(=O)cc(N5CCOCC5)o4)c2S3)C[C@H](C)O1 + C[C@]1(O)C[C@@H](c2nc(-c3ccc4ccc(-c5ccccc5)nc4c3)c3c(N)nccn32)C1 [Linsitinib] (partner 1 µM)")
0.893
>>> reported_measurement("Clc1ccc(Nc2nnc(Cc3ccncc3)c3ccccc23)cc1 [Vatalanib] + CC(C)C[C@H](NC(=O)[C@H](Cc1ccccc1)NC(=O)c1cnccn1)B(O)O [Bortezomib] (partner 0.002 µM)")
0.933
>>> reported_measurement("COc1cc(N2CCC(C(N)=O)CC2)ccc1Nc1nc(N)c(Cl)c(Nc2ccccc2S(=O)(=O)C(C)C)n1 [HG-5-88-01] + CC(C)C[C@H](NC(=O)[C@H](Cc1ccccc1)NC(=O)c1cnccn1)B(O)O [Bortezomib] (partner 0.002 µM)")
1.16
